System: human red blood cells (hRBCs)
assay info: Hemolysis assay
Format: cell-based
conditions: red cells of human, 1 h
Where a SMILES comes first, the peptide text is derived from it. Side-chain parts run from the residue outwards. [ ]: non-standard residue; d: D form. The star is where a group is joined. Myristoyl = CCCCCCCCCCCCCC(=O)*; Decanoyl = CCCCCCCCCC(=O)*; Nle = CCCC[C@H](N)C(=O)O; Octanoyl = CCCCCCCC(=O)*
# Lookup of reported HC50 keyed by entry
measured property: HC50

>>> result("CCCCCCCCCCCCCC(=O)N[C@@H](CCCNC(=N)N)C(=O)N[C@@H](CCCNC(=N)N)C(=O)NCCCC[C@H](NC(=O)[C@H](CCCNC(=N)N)NC(=O)[C@H](CCCNC(=N)N)NC(=O)CCCCCCCCCCCCC)C(N)=O [Compound B4] (Myristoyl-Arg-Arg-Lys([Arg-Arg-Myristoyl])-NH2)")
"44.12 ± 4.70 µg/mL"
>>> result("CCCCCCCC(=O)N[C@@H](CCCC)C(=O)N[C@@H](CCCNC(=N)N)C(=O)N[C@@H](CCCNC(=N)N)C(=O)NCCCC[C@H](NC(=O)[C@H](CCCNC(=N)N)NC(=O)[C@H](CCCNC(=N)N)NC(=O)[C@H](CCCC)NC(=O)CCCCCCC)C(N)=O [Compound B6] (Octanoyl-[Nle]RRK([Arg-Arg-Nle-Octanoyl])-NH2)")
">256 µg/mL"
>>> result("CCCCCCC(CCCC)C(=O)N[C@@H](CCCNC(=N)N)C(=O)N[C@@H](CCCNC(=N)N)C(=O)NCCCC[C@H](NC(=O)[C@H](CCCNC(=N)N)NC(=O)[C@H](CCCNC(=N)N)NC(=O)C(CCCC)CCCCCC)C(N)=O (stereo partly shown)")
">256 µg/mL"
>>> result("CCCCCCCCCC(=O)N[C@@H](CCCNC(=N)N)C(=O)N[C@@H](CCCNC(=N)N)C(=O)NCCCC[C@H](NC(=O)[C@H](CCCNC(=N)N)NC(=O)[C@H](CCCNC(=N)N)NC(=O)CCCCCCCCC)C(N)=O [Compound B2] (Decanoyl-Arg-Arg-Lys([Arg-Arg-Decanoyl])-NH2)")
">256 µg/mL"
